tested on: MARK4; conditions: concentration: 1 μM, replicates: in singlicate; n = 1;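 note: KINOMEscan kinase panel screen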
%Inh: recorded values

{"COMPOUND": "CN(C)c1ncnc2nc[nH]c12 [SKF-31736]", "%Inh": "9%"}
{"COMPOUND": "Cc1ccc(O)cc1Nc1ccnc2ccc(C(C)(C)C)cc12 [GW856805]", "%Inh": "37%"}
{"COMPOUND": "Cl.Cl.NCC(NC(=O)c1cc(-c2cccnc2)c(-c2ccnc3[nH]ccc23)s1)c1ccccc1 (stereo not drawn) [GSK1323434]", "%Inh": "8%"}
{"COMPOUND": "COc1cccc(NC(=O)NCCNc2ccnc(Nc3ccc(F)cc3)n2)c1 [GSK1379879]", "%Inh": "5%"}
{"COMPOUND": "CS(=O)(=O)c1cccc(CNc2nc(Nc3ccc4c(c3)CCC(=O)N4)ncc2C(F)(F)F)c1", "%Inh": "46%"}
{"COMPOUND": "COc1cc(Nc2nccc(N3CCC(NS(=O)(=O)c4ccc(NC(C)=O)cc4)CC3)n2)cc(OC)c1OC [GSK1379825]", "%Inh": "15%"}
{"COMPOUND": "Cc1ccccc1CC(=O)N1CCc2cc(-c3cn(C)c4ncnc(N)c34)ccc21 [GSK2603346]", "%Inh": "0%"}
{"COMPOUND": "Cc1nn2c(=O)cc(N3CCO[C@H](C)C3)nc2n1Cc1cccc(Cl)c1Cl [GSK2373693]", "%Inh": "0%"}
{"COMPOUND": "Cc1cc(-c2c(-c3ccc(F)cc3)ncn2CCCN2CCOCC2)nc(N)n1 [SB-222517]", "%Inh": "32%"}
{"COMPOUND": "NCCC(NC(=O)c1cc(Br)c(-c2ccnc3[nH]ccc23)s1)c1ccccc1.O=C(O)C(F)(F)F.O=C(O)C(F)(F)F (stereo not drawn) [GSK1307810]", "%Inh": "11%"}
{"COMPOUND": "CC(C)NCC(Cc1ccccc1)NC(=O)c1cc(Br)c(-c2ccnc3[nH]ccc23)s1.Cl.Cl (stereo not drawn) [GSK1383281]", "%Inh": "0%"}
{"COMPOUND": "Cl.Cl.NC(CNC(=O)c1cc(Br)c(-c2ccnc3[nH]ccc23)s1)c1ccccc1 (stereo not drawn) [GSK1322949]", "%Inh": "0%"}
{"COMPOUND": "O=C(Nc1n[nH]c2nc(-c3ccccc3)ccc12)C1CC1 [SB-708999]", "%Inh": "8%"}
{"COMPOUND": "Cc1ccc(-c2ccc3occ(-c4ccc(S(C)=O)cc4)c3c2)nn1 (stereo not drawn)", "%Inh": "4%"}
{"COMPOUND": "Cc1ccc(Nc2ccnc(Nc3ccc(C)c(F)c3)n2)cc1O.Cl [GW582868]", "%Inh": "0%"}
{"COMPOUND": "Cc1cccc(Nc2nc(NCCN)ncc2C(N)=O)c1 [GSK1292139]", "%Inh": "0%"}
{"COMPOUND": "Cc1ccc(NC(=O)c2cccc(N3CCCCC3)c2)cc1-c1ccc(C(=O)NCC2CC2)cc1 [GSK1917008]", "%Inh": "10%"}
{"COMPOUND": "Cn1cc(-c2ccc3c(c2)CCN3C(=O)Cc2cc(F)cc(F)c2F)c2c(N)ncnc21 [GSK2634140]", "%Inh": "0%"}

====

Parameter: %Inh. Scope: all listed entries.
system: NEK3; details: concentration: 1 μM, replicates: in singlicate; n = 1

{"COMPOUND": "CCn1cnc2c(NCc3ccccc3)ncnc21 [SKF-96418]", "%Inh, %": 24}
{"COMPOUND": "Cl.N#CCc1ccc(Nc2nccc(Nc3ccc(Oc4ccccc4)cc3)n2)cc1 [GW639905]", "%Inh, %": 0}
{"COMPOUND": "COC(=O)Nc1nc2ccc(Oc3ccc(NC(=O)Nc4cc(C(F)(F)F)ccc4F)cc3)cc2[nH]1.Cl [GW654607]", "%Inh, %": 0}
{"COMPOUND": "COc1cccc(-c2nc(-c3ccccc3)[nH]c2-c2ccncc2)c1 [SB-610250]", "%Inh, %": 11}
{"COMPOUND": "Cc1cc(-c2c(-c3ccc(F)cc3)ncn2CCCN2CCOCC2)nc(N)n1 [SB-222517]", "%Inh, %": 25}
{"COMPOUND": "COc1cccc(C2=C(Nc3cccc(O)c3)C(=O)NC2=O)c1 [SB-390771]", "%Inh, %": 19}
{"COMPOUND": "Nc1ncc(-c2ccc3nccc(-c4ccncc4)c3c2)cc1S(=O)(=O)N1CCCCC1 [GSK1693850]", "%Inh, %": 4}
{"COMPOUND": "Fc1cc(Cl)ccc1Nc1ccnc2cc(-c3ccc(CN4CCSCC4)o3)ccc12 [GW560106]", "%Inh, %": 5}
{"COMPOUND": "CCNC(=O)/C=C/c1n[nH]c2cc(Sc3ccccc3C(=O)NC)ccc12", "%Inh, %": 26}
{"COMPOUND": "Cc1cccc(Nc2nc(NCCN)ncc2C(N)=O)c1 [GSK1292139]", "%Inh, %": 31}
{"COMPOUND": "COc1cc(Nc2nccc(N3CCC(NC(=O)Nc4ccc5c(c4)OCO5)C3)n2)cc(OC)c1OC (stereo not drawn) [GSK1379766]", "%Inh, %": 45}
{"COMPOUND": "c1ccc(Oc2ccc(Nc3ccnc4cc(-c5ccc(CN6CCCCC6)o5)ccc34)cc2)nc1 [GW567143]", "%Inh, %": 0}
{"COMPOUND": "COc1ccc(NC(=O)c2ccoc2)cc1-c1ccc(C(=O)NCC2CC2)cc1 [GW810437]", "%Inh, %": 37}
{"COMPOUND": "O=C(Nc1c(F)cccc1F)c1cc(C(=O)c2ccccc2F)c[nH]1 [GSK1326180]", "%Inh, %": 0}
{"COMPOUND": "N#CC1(c2cccc(C(=O)Nc3cccc(Oc4ccc5nc(NC(=O)C6CC6)sc5n4)c3)c2)CC1", "%Inh, %": 30}
{"COMPOUND": "O=C(Nc1n[nH]c2nc(-c3cccc(O)c3)ccc12)C1CC1 [SB-711805]", "%Inh, %": 19}
{"COMPOUND": "O=C(Nc1n[nH]c2cc(-c3cccs3)ccc12)C1CC1 [SB-731284]", "%Inh, %": 20}
{"COMPOUND": "Cn1cc(-c2ccc3c(c2)CCN3C(=O)Cc2cc(F)cc(C(F)(F)F)c2)c2c(N)ncnc21 [GSK2635225]", "%Inh, %": 0}

====

%Inh: recorded values
system: YES; construct: gene YES1; conditions: concentration: 1 μM, replicates: in singlicate; n = 1

{"COMPOUND": "NCCC(NC(=O)c1cc(Br)c(-c2ccnc3[nH]ccc23)s1)c1ccccc1.O=C(O)C(F)(F)F.O=C(O)C(F)(F)F (stereo not drawn)", "%Inh / %": 14}
{"COMPOUND": "COc1cccc(NC(=O)NCCNc2ccnc(Nc3ccc(F)cc3)n2)c1", "%Inh / %": 0}
{"COMPOUND": "O=C(Nc1n[nH]c2nc(-c3cccc(O)c3)ccc12)C1CC1", "%Inh / %": 0}
{"COMPOUND": "CC(C)NCC(Cc1ccccc1)NC(=O)c1cc(Br)c(-c2ccnc3[nH]ccc23)s1.Cl.Cl (stereo not drawn)", "%Inh / %": 0}
{"COMPOUND": "COC(=O)Nc1nc2cc(Oc3ccc(NC(=O)Nc4cccc(SC)c4)cc3)ccc2[nH]1.Cl", "%Inh / %": 29}
{"COMPOUND": "CCn1cnc2c(NCc3ccccc3)ncnc21", "%Inh / %": 0}
{"COMPOUND": "CCNc1nccc(-c2c(-c3ccc(F)cc3)ncn2C2CCN(C)CC2)n1", "%Inh / %": 3}
{"COMPOUND": "Cc1ccc(NC(=O)c2ccc(Cl)c(Cl)c2)cc1-c1ccc(C(=O)Nc2ccncc2)cc1", "%Inh / %": 29}
{"COMPOUND": "O=C1NC(=O)C(c2ccccc2Cl)=C1Nc1cccc(Cl)c1", "%Inh / %": 17}

====

test system: PFTAIRE2; details: concentration: 1 μM, replicates: in singlicate; n = 1
ENDPOINT_LABEL: %Inh (%)

{"RECORD_SMILES": "Cc1ccc(C)c(NC(=O)Nc2ccc(C)c(-c3ccc(C(=O)Nc4ccncc4)cc3)c2)c1", "SYSTEM_UNDER_TEST": "PFTAIRE2", "ENDPOINT_LABEL": "%Inh", "REPORTED": 12}
{"RECORD_SMILES": "CC(=O)Nc1cn2nc(Oc3cccc(NC(=O)c4cccc(C(F)(F)F)c4)c3)ccc2n1", "SYSTEM_UNDER_TEST": "PFTAIRE2", "ENDPOINT_LABEL": "%Inh", "REPORTED": 0}
{"RECORD_SMILES": "CCOc1nccc(-c2c(-c3ccc(F)cc3)ncn2C2CCNCC2)n1", "SYSTEM_UNDER_TEST": "PFTAIRE2", "ENDPOINT_LABEL": "%Inh", "REPORTED": 0}
{"RECORD_SMILES": "Fc1cc(Cl)ccc1Nc1ccnc2cc(-c3ccc(CN4CCOCC4)o3)ccc12", "SYSTEM_UNDER_TEST": "PFTAIRE2", "ENDPOINT_LABEL": "%Inh", "REPORTED": 12}
